Reference source for all entries: BindingDB's records for doi:10.1016/j.bmcl.2009.03.086

Molecular target: Isoform Alpha-1 of Mitogen-activated protein kinase 10 (Alpha-1) 9-402] (Homo sapiens, UniProt P53779)
Sequence (P53779 39-402): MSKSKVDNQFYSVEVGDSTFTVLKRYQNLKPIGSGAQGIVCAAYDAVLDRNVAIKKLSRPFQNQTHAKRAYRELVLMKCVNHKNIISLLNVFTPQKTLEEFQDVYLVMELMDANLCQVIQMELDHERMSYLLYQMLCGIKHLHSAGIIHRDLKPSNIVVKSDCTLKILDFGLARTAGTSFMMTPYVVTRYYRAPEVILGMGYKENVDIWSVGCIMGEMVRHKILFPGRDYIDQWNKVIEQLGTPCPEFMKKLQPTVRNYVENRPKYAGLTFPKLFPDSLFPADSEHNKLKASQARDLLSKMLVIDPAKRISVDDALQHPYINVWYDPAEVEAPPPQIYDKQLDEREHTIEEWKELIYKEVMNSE
Assay: Homogeneous Time-resolved Fluorescence Assay
Details: pH 7; 22 °C
reported-metric: pIC50
Numbers only, as −log10 of the molar value.

Data point: C=CCN1CCN(c2c(Cl)cccc2NC(=O)c2ccc(Br)o2)CC1 [piperazine amide, 6a] ; pIC50 = 5.90

----------
Molecular target: Mitogen-activated protein kinase 8 (Homo sapiens)
Sequence (P45983 whole entry): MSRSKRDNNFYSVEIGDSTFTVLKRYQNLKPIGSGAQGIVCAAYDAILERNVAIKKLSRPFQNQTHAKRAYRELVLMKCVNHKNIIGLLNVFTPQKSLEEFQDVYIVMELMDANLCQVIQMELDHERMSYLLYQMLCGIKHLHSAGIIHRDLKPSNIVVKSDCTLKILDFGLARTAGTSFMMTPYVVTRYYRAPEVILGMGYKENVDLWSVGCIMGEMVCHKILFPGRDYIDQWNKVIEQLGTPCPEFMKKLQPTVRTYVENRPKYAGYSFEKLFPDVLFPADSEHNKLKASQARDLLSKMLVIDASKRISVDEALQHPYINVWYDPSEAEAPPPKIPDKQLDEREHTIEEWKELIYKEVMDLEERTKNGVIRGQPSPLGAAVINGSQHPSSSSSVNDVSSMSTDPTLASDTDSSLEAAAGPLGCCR
Test: Homogeneous Time-resolved Fluorescence Assay
reported-metric: IC50
Express your answer as a number followed by its unit.

Observed IC50 on Mitogen-activated protein kinase 8 (Homo sapiens), entry C=CCN1CCN(c2c(Cl)cccc2NC(=O)c2ccc(Br)o2)CC1 [piperazine amide, 6a] , equals 380 nM
